Molecular target: T1, WHRN NPDZ1 (UniProt Q9P202 33-239)
T1 chain: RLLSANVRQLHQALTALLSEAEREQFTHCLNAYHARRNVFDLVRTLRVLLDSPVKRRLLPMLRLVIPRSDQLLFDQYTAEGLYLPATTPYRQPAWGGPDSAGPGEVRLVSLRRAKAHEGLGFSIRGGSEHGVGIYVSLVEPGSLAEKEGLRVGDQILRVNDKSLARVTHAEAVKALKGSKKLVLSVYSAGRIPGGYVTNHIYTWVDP
Assay: ITC
Quantity name: Kd (µM)
Report as a plain number; the unit µM is understood.

Which Kd value is on record for ADGRV1-CT (domain or fragment, UniProt Q8VHN7 6239-6298, looked up, ADGRV1 cytoplasmic region, residues 6239-6298 of UniProtKB Q8VHN7; Named Trx-ADGRV1-CT in SEC-MALS; also called Trx-ADGRV1-CT; VLGR1-CT; source: E. coli BL21 (DE3), purified (Ni2+-NTA, size-exclusion chromatography); not shown: Trx, N-terminal, kept) GSLIADEESQEFDDLIFALKTGAGLSVSDNESGQGSQEGGTLTDSQIVELRRIPIADTHL ? 9
